Data origin, for the record: PubChem BioAssay AID527

ASSAY TEXT: S. aureus quorum sensing inhibitors, primary screen, RNAIII-GFP reporter, flow cytometry (AID 527);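 note: 0% = AIP-stimulated control and 100% = unstimulated bacteria without AIP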
EXPERIMENTAL SETUP: S. aureus RN6390 RNAIII-GFP reporter, AIP-induced, flow cytometry 3 h; at 2 µM; stronger effect = higher value
About 65 (0.3%) of roughly 24,000 compounds were called active. What follows is part of a selection rich in actives, with near analogues and random picks from the rest.
PROPERTY MEASURED: inhibition (%)
Numeric only. Scale: %

Example entries begin here.
{"columns": ["COMPOUND", "inhibition, %"],
 "data": [
  ["CCOC(=O)c1cn(CC(=O)Nc2ccc(C(C)C)cc2)nn1", 2.3],
  ["COc1ccc(-c2c(C)nn3c(N4CCC(C(=O)N5CCCCC5)CC4)cc(C)nc23)cc1OC", -3.5],
  ["C=CCOc1ccc(/C=N/n2cncn2)cc1OC", 0.5]
]}

(Q) What does the data say about its inhibition? Entry: COc1ccc(C2OC(=O)CC2C(=O)NC(C)C)cc1 (stereo not given)
(A) -1

(Q) And then Cc1cccc(N2CCN(C(=O)C3CCN(S(=O)(=O)c4cnc[nH]4)CC3)CC2)c1C , what is it?
(A) -9.8

(Q) And then Cn1c(=O)[nH]c(=O)c2c1nc(NCCCn1ccnc1)n2Cc1cccc(Br)c1 , what is it?
(A) -0.5

(Q) And then COc1cc2cc(CN(CCN3CCCC3)C(=O)Nc3ccccc3Cl)c(=O)[nH]c2cc1OC , what is it?
(A) -3.5

(Q) And then Cc1nc2ccc(S(=O)(=O)NCC(=O)NCCN3CCCCC3C)cc2s1 (stereo not given) , what is it?
(A) -2.2

(Q) And then Cc1cc(=O)n2nc(N3CCCC3C(=O)NCCCN3CC(C)CC(C)C3)sc2n1 (stereo not given) , what is it?
(A) 2.5

(Q) And then CCOCCCN1C(=O)CN(C2CCCCC2)C(=O)C1c1ccc(OCC)c(OC)c1 (stereo not given) , what is it?
(A) 0.8

----------
Entries annotated with measured inhibition
ASSAY TEXT: S. aureus quorum sensing inhibitors, primary screen, RNAIII-GFP reporter, flow cytometry (AID 527);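 note: 0% = AIP-stimulated control and 100% = unstimulated bacteria without AIP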
EXPERIMENTAL SETUP: S. aureus RN6390 RNAIII-GFP reporter, AIP-induced, flow cytometry 3 h; measured here: inhibition of GFP MFI; at 2 µM; stronger effect = higher value
Screen size: about 24,000 compounds; about 65 (0.3%) were called active. What follows is part of a selection rich in actives, with near analogues and random picks from the rest.
Numeric only. Scale: %

Example entries begin here.
{"columns": ["MOLECULE", "VALUE OBSERVED"],
 "data": [
  ["Cc1nc(NC(=O)CCC(=O)O)sc1C(=O)N(C)C", -15.4],
  ["COC(=O)Nc1ccc(S(=O)(=O)N(C)CC(F)(F)C(F)F)cc1", -5.8],
  ["Clc1ccc(Cc2nn3c(-c4ccncc4)nnc3s2)cc1", 5.4]
]}

(Q) What does the data say about its inhibition? Entry: Nc1scc(-c2ccncc2)c1Cl
(A) 15.1

(Q) And then O=C(O)C1C2C=CC(C2)C1C(=O)N1CCN(CCO)CC1 (configuration not stated) , what is it?
(A) -23.2

(Q) And then CCOC(=O)Cn1c(=O)oc2cc(S(=O)(=O)N(C)Cc3ccco3)ccc21 , what is it?
(A) -10.2

(Q) And then Cc1ccc(C)c(N2CCN(C(=O)CCc3nc4ccccc4[nH]3)CC2)c1 , what is it?
(A) 36.1

(Q) And then COC(=O)c1ccc(NC(=O)C(C)N2C(=O)c3ccccc3C2=O)cc1 (configuration not stated) , what is it?
(A) -12.9

(Q) And then CCOC(=O)N1CCC(NC(=O)c2ccc3nc(N4CCOCC4)sc3c2)CC1 , what is it?
(A) -36.9

(Q) And then CC(C)(C)c1ccc(C(=O)NCCC(=O)NCc2ccco2)cc1 , what is it?
(A) 1.1

----------
Entries annotated with measured inhibition
ASSAY TEXT: S. aureus quorum sensing inhibitors, primary screen, RNAIII-GFP reporter, flow cytometry (AID 527);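 note: 0% = AIP-stimulated control and 100% = unstimulated bacteria without AIP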
EXPERIMENTAL SETUP: S. aureus RN6390 RNAIII-GFP reporter, AIP-induced, flow cytometry 3 h; measured here: inhibition of GFP MFI; at 2 µM; stronger effect = higher value
About 65 (0.3%) of roughly 24,000 compounds were called active. The full list was thinned out, with actives kept by preference.

{"columns": ["COMPOUND", "inhibition"],
 "data": [
  ["CCOC(=O)CSc1nnc(CNC(=O)c2cccs2)n1-c1cc(OC)ccc1OC", "29.5%"],
  ["CCN(c1ccc2c(c1)OCO2)S(=O)(=O)c1cc(Br)cc2c1N(C(=O)C1CC1)CC2", "5.6%"],
  ["O=C(CN1C(=O)CSc2ncccc21)N1CCOCC1", "-14.2%"],
  ["O=C(CSc1nc2ccccc2o1)N1CCN(c2ccc(Cl)cc2)CC1", "5.2%"],
  ["COc1cccc(N2CCN(C3CC(=O)N(c4ccc(Cl)cc4)C3=O)CC2)c1 (stereo unspecified)", "-50.4%"]
]}

# next compound below
(Q) What does the data say about its inhibition? Entry: CSc1ccc(NC(=O)N2CC(C)OC(C)C2)cc1 (stereo unspecified)
(A) 1.1%

----------
ASSAY TEXT: S. aureus quorum sensing inhibitors, primary screen, RNAIII-GFP reporter, flow cytometry (AID 527);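 note: 0% = AIP-stimulated control and 100% = unstimulated bacteria without AIP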
EXPERIMENTAL SETUP: S. aureus RN6390 RNAIII-GFP reporter, AIP-induced, flow cytometry 3 h; at 2 µM; stronger effect = higher value
The whole screen tested about 24,000 compounds, of which about 65 (0.3%) were called active. The sample as a whole holds a higher share of actives than the screen did.
Entries annotated with measured inhibition
Numeric only. Scale: %

Example entries begin here.
{"columns": ["COMPOUND", "PROPERTY MEASURED", "VALUE OBSERVED"],
 "data": [
  ["CCN(Cc1nc2ccccc2c(=O)[nH]1)Cc1cc(=O)oc2cc(C)c(C)cc12", "inhibition", 4.2],
  ["O=C(NCc1ccco1)C1CCCN(S(=O)(=O)c2cnc[nH]2)C1 (stereo unspecified)", "inhibition", 3.6],
  ["COC(=O)Nc1ccc(S(=O)(=O)N(C)CC(F)(F)C(F)F)cc1", "inhibition", -3.8],
  ["O=C(Cn1nc(Cc2cccnc2)c2ccccc2c1=O)NCC1COc2ccccc2O1 (stereo unspecified)", "inhibition", 5.9],
  ["O=C(CN1CCN(C(=O)c2ccco2)CC1)Nc1ccc2c(c1)OCO2", "inhibition", 0.1],
  ["O=C(CCOc1ccccc1)NCc1ccccc1", "inhibition", 1.7]
]}

(Q) What does the data say about its inhibition? Entry: CC1CCCN(C(C(=O)Nc2ccc(C(C)C)cc2)c2ccc3c(c2)OCO3)C1 (stereo unspecified)
(A) -2.3

(Q) And then CN(C)/C=C1\C=C(c2ccccc2)OC1=O , what is it?
(A) 0.4

(Q) And then Cc1cccn2c(=O)c3cc(C(=O)NCc4ccccn4)n(C)c3nc12 , what is it?
(A) -3.5

(Q) And then COc1cccc(OC)c1OCCN1CCN(C(=O)c2ccco2)CC1 , what is it?
(A) -1

(Q) And then COc1ccc(C2CC(c3ccc(C)cc3)Nc3ncnn32)cc1 (stereo unspecified) , what is it?
(A) -0.4

----------
Entries annotated with measured inhibition
ASSAY TEXT: S. aureus quorum sensing inhibitors, primary screen, RNAIII-GFP reporter, flow cytometry (AID 527);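 note: 0% = AIP-stimulated control and 100% = unstimulated bacteria without AIP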
EXPERIMENTAL SETUP: S. aureus RN6390 RNAIII-GFP reporter, AIP-induced, flow cytometry 3 h; at 2 µM; stronger effect = higher value
Screen size: about 24,000 compounds; about 65 (0.3%) were called active. Many of the other results were omitted from the sample, so actives are more common in it than they were.
Numeric only. Scale: %

{"columns": ["COMPOUND", "PROPERTY MEASURED", "VALUE OBSERVED"],
 "data": [
  ["CC(c1ccco1)N(C(=O)c1ccc(S(=O)(=O)N2CCCCC2)cc1)c1ccccn1 (configuration not stated)", "inhibition", -0.6],
  ["COc1ccc(C2/C(=C(/O)c3ccc(OC(C)C)cc3)C(=O)C(=O)N2CCCN2CCOCC2)cc1 (configuration not stated)", "inhibition", 7.5],
  ["CCn1cc(C(=O)NCC2CCCO2)c(=O)c2cc(S(=O)(=O)N3CCCCC3)ccc21 (configuration not stated)", "inhibition", -8.4],
  ["O=C(NCc1ccc2c(c1)OCO2)C1CCCN(S(=O)(=O)c2cccs2)C1 (configuration not stated)", "inhibition", 16.2],
  ["Cc1ccccc1CN1CCN(C(=O)c2cccc(F)c2)CC1", "inhibition", -0.2],
  ["CN(C(=O)C1CCOC1)c1nnc(-c2cccnc2)s1 (configuration not stated)", "inhibition", -2.1],
  ["COc1ccc(-n2ncc3c(N4CCCc5ccccc54)ncnc32)cc1", "inhibition", -3.1],
  ["CCOC(=O)Cn1c(=O)oc2cc(S(=O)(=O)N(C)Cc3ccco3)ccc21", "inhibition", -6.4]
]}

(Q) What does the data say about its inhibition? Entry: CCCCN(CC)C(=O)CN(C)S(=O)(=O)c1cccc2nsnc12
(A) -1.2

(Q) And then COc1cccc(N2CCN(C3CC(=O)N(c4ccc(Cl)cc4)C3=O)CC2)c1 (configuration not stated) , what is it?
(A) -2.7

(Q) And then CC(=O)NC(Cc1ccc(F)cc1)C(=O)O (configuration not stated) , what is it?
(A) -5.3

(Q) And then COCCNC(=S)c1ccc(OC)cc1 , what is it?
(A) -3.4

(Q) And then CC(=O)c1cc2c(cc1NC(=O)CN1CCCCCC1)OCO2 , what is it?
(A) -3.5

(Q) And then CCOC(=O)N1CCN(CC(=O)c2c(C)[nH]c3ccccc23)CC1 , what is it?
(A) -0.6
